B1: CDKN1A (parent)
chain: RRQTSMTDFYHSKRRLIFSKRKP

variants of: B1; assay: protein stability index of a GFP-peptide fusion (GPS, HEK-293T) (PSI 1-6); higher = more stable; conditions: c terminus: native;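 also: lentivirally expressed fusions sorted by FACS into six bins by GFP to DsRed ratio, PSI derived from sequencing read proportions per bin multiplied by bin number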
Labels assigned by protein stability index range: lower segment: < 2; middle segment: ≥ 2 and < 3; upper segment: ≥ 3

Q) Place this variant in its band: RRQTSMTDFYHSKRRLIFSKRMP [K22M]
A) upper segment

Q) Place this variant in its band: RRQASMTDFYHSKRRLIFSKRKP [T4A]
A) middle segment

Q) Place this variant in its band: RRQTSMTDFYHSKRRLIFSKQKP [R21Q]
A) middle segment

Q) Place this variant in its band: RRQTSMTDFYHYKRRLIFSKRKP [S12Y]
A) middle segment

Q) Place this variant in its band: RRQTSMTDFYNSKRRLIFSKRKP [H11N]
A) lower segment

Q) Place this variant in its band: RWQTSMTDFYHSKRRLIFSKRKP [R2W]
A) middle segment

Q) Place this variant in its band: RRQTSMTDFYHSKHRLIFSKRKP [R14H]
A) upper segment

Q) Place this variant in its band: RRQTSMTDFYHSKRRLIFSKIKP [R21I]
A) upper segment

Q) Place this variant in its band: RRQTSMTDFYHSKRRLILSKRKP [F18L]
A) lower segment

Q) Place this variant in its band: RRQTSMTDFYHSKRRLIFTKRKP [S19T]
A) lower segment

Q) Place this variant in its band: RRQTSMTDFYHIKRRLIFSKRKP [S12I]
A) upper segment

Q) Place this variant in its band: RKQTSMTDFYHSKRRLIFSKRKP [R2K]
A) lower segment

Q) Place this variant in its band: RRQTSMTDFPHSKRRLIFSKRKP [Y10P]
A) middle segment

Q) Place this variant in its band: RRQTSMTDFYHSKRRLIFSKRKD [P23D]
A) middle segment

Q) Place this variant in its band: RRQTSMTDFYHSKRRLIFSKRLP [K22L]
A) lower segment

Q) Place this variant in its band: RRQTSMTDFYGSKRRLIFSKRKP [H11G]
A) middle segment

Q) Place this variant in its band: RRQSSMTDFYHSKRRLIFSKRKP [T4S]
A) middle segment

Q) Place this variant in its band: RRQTSMTDFYHSKNRLIFSKRKP [R14N]
A) middle segment

Q) Place this variant in its band: RRQTPMTDFYHSKRRLIFSKRKP [S5P]
A) lower segment

Q) Place this variant in its band: RRQTSMTDFYHSKDRLIFSKRKP [R14D]
A) middle segment

Q) Place this variant in its band: RRQTSMTDFYHSKQRLIFSKRKP [R14Q]
A) upper segment

Q) Place this variant in its band: RRQTSMTDFYHGKRRLIFSKRKP [S12G]
A) middle segment

Q) Place this variant in its band: RRQTSMRDFYHSKRRLIFSKRKP [T7R]
A) lower segment

Q) Place this variant in its band: RRQTSMTDFYHSKRRLIFAKRKP [S19A]
A) middle segment

Q) Place this variant in its band: RRQTSMTDFYHFKRRLIFSKRKP [S12F]
A) lower segment

Q) Place this variant in its band: RRQTSMTDFYHSKRRLIFSKCKP [R21C]
A) upper segment

Q) Place this variant in its band: RRQTSMTDFYHSKRRLIYSKRKP [F18Y]
A) middle segment

Q) Place this variant in its band: RNQTSMTDFYHSKRRLIFSKRKP [R2N]
A) upper segment

Q) Place this variant in its band: RRQTFMTDFYHSKRRLIFSKRKP [S5F]
A) lower segment

Q) Place this variant in its band: RRQTSMTPFYHSKRRLIFSKRKP [D8P]
A) middle segment

Q) Place this variant in its band: RRQRSMTDFYHSKRRLIFSKRKP [T4R]
A) lower segment

Q) Place this variant in its band: RRQTSMTDFYHSNRRLIFSKRKP [K13N]
A) middle segment

Q) Place this variant in its band: RRQTSMTDFYHSKRRLIFSNRKP [K20N]
A) lower segment

Q) Place this variant in its band: RRQTSMTDFYHSKRMLIFSKRKP [R15M]
A) upper segment

Q) Place this variant in its band: RRQTSMTDFYHSKRRLIFSKRAP [K22A]
A) lower segment

Q) Place this variant in its band: TRQTSMTDFYHSKRRLIFSKRKP [R1T]
A) upper segment

Q) Place this variant in its band: RRQTVMTDFYHSKRRLIFSKRKP [S5V]
A) middle segment

Q) Place this variant in its band: RRQVSMTDFYHSKRRLIFSKRKP [T4V]
A) upper segment

Q) Place this variant in its band: RRQTSMTDFYHSKRRLIFSVRKP [K20V]
A) middle segment

Q) Place this variant in its band: RVQTSMTDFYHSKRRLIFSKRKP [R2V]
A) middle segment

Q) Place this variant in its band: RRQTSMTDFVHSKRRLIFSKRKP [Y10V]
A) middle segment

Q) Place this variant in its band: RRQTSMTDFYHSKRRTIFSKRKP [L16T]
A) middle segment

Q) Place this variant in its band: RRGTSMTDFYHSKRRLIFSKRKP [Q3G]
A) upper segment

Q) Place this variant in its band: RRQTSMTDFYHSKRRLEFSKRKP [I17E]
A) upper segment

Q) Place this variant in its band: RRQTSHTDFYHSKRRLIFSKRKP [M6H]
A) middle segment
